Measured values drawn from BindingDB's records for doi:10.1074/jbc.M114.564278 for this set.

target: Acyl-[acyl-carrier-protein]--UDP-N-acetylglucosamine O-acyltransferase (Escherichia coli (strain K12), UniProt P0A722); assay: Fluorescence Polarization Assay; conditions: pH 8
Sequence (P0A722 whole entry): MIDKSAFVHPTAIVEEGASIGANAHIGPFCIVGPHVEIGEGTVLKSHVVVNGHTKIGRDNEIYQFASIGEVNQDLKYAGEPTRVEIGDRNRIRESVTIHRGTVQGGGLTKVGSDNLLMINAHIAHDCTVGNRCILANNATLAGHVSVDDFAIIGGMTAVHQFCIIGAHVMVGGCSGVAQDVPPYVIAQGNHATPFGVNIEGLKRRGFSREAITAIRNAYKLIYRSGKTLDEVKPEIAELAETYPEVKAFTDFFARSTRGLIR
pKd: −log10 of the molar value. Where a SMILES comes first, the peptide text is derived from it. [ ]: non-standard residue; d: D form. The star is where a group is joined. X1 = O=C(O)c1cc(NC(=S)*)ccc1-c1c2ccc(=O)cc-2oc2cc(O)ccc12; Ala(3-Me-diazirin-3-yl) = CC1(C[C@H](N)C(=O)O)N=N1; βAla = NCCC(=O)O
Returns one of rule met or rule not met; rule met when pKd is >= 5.

>  <COMPOUND>
CC[C@H](C)[C@H](NC(=O)[C@H](CC(=O)O)NC(=O)[C@H](Cc1c[nH]c2ccccc12)NC(=O)[C@H](CCCCN)NC(=O)[C@@H]1CCCN1C(=O)[C@H](CC(C)C)NC(=O)[C@H](CCSC)NC(=O)[C@H](Cc1ccc(O)cc1)NC(=O)[C@H](CC1(C)N=N1)NC(=O)[C@H](CC(N)=O)NC(=O)[C@@H](NC(=O)CCNC(=S)Nc1ccc(-c2c3ccc(=O)cc-3oc3cc(O)ccc23)c(C(=O)O)c1)[C@@H](C)O)C(=O)N1CCC[C@H]1C(N)=O ({X1-βAla}-TN[Ala(3-Me-diazirin-3-yl)]YMLPKWDIP-NH2)

>  <CLASS>
rule not met

$$$$
>  <COMPOUND>
CSCC[C@H](NC(=O)[C@H](Cc1ccc(O)cc1)NC(=O)[C@H](CC(C)C)NC(=O)[C@H](CC(N)=O)NC(=O)[C@@H](NC(=O)CCNC(=S)Nc1ccc(-c2c3ccc(=O)cc-3oc3cc(O)ccc23)c(C(=O)O)c1)[C@@H](C)O)C(=O)N[C@@H](CC(C)C)C(=O)O [FITC-(βa)TNLYML-COOH] ({X1-βAla}-TNLYML-OH)

>  <CLASS>
rule met

$$$$
>  <COMPOUND>
CSCC[C@H](NC(=O)[C@H](Cc1ccc(O)cc1)NC(=O)[C@H](CC(C)C)NC(=O)[C@H](CC(N)=O)NC(=O)[C@@H](NC(=O)CCNC(=S)Nc1ccc(-c2c3ccc(=O)cc-3oc3cc(O)ccc23)c(C(=O)O)c1)[C@@H](C)O)C(=O)N[C@@H](CC(C)C)C(=O)N1CCC[C@H]1C(=O)N[C@@H](CCCCN)C(=O)N[C@@H](Cc1c[nH]c2ccccc12)C(=O)N[C@@H](CC(=O)O)C(=O)N[C@@H](CC1(C)N=N1)C(=O)N1CCC[C@H]1C(N)=O ({X1-βAla}-TNLYMLPKWD[Ala(3-Me-diazirin-3-yl)]P-NH2)

>  <CLASS>
rule not met

$$$$
>  <COMPOUND>
CC[C@H](C)[C@H](NC(=O)[C@H](CC(=O)O)NC(=O)[C@H](Cc1c[nH]c2ccccc12)NC(=O)[C@H](CCCCN)NC(=O)[C@@H]1CCCN1C(=O)[C@H](CC(C)C)NC(=O)[C@H](CCSC)NC(=O)[C@H](Cc1ccc(O)cc1)NC(=O)[C@H](CC(C)C)NC(=O)[C@H](CC(N)=O)NC(=O)[C@@H](NC(=O)CCNC(=S)Nc1ccc(-c2c3ccc(=O)cc-3oc3cc(O)ccc23)c(C(=O)O)c1)[C@@H](C)O)C(=O)N1CCC[C@H]1C(N)=O [FITC-(βa)TNLYMLPKWDIP-CONH2] ({X1-βAla}-TNLYMLPKWDIP-NH2)

>  <CLASS>
rule not met

$$$$
>  <COMPOUND>
CC[C@H](C)[C@H](NC(=O)[C@H](CC(=O)O)NC(=O)[C@H](Cc1c[nH]c2ccccc12)NC(=O)[C@H](CCCCN)NC(=O)[C@@H]1CCCN1C(=O)[C@H](CC1(C)N=N1)NC(=O)[C@H](CCSC)NC(=O)[C@H](Cc1ccc(O)cc1)NC(=O)[C@H](CC(C)C)NC(=O)[C@H](CC(N)=O)NC(=O)[C@@H](NC(=O)CCNC(=S)Nc1ccc(-c2c3ccc(=O)cc-3oc3cc(O)ccc23)c(C(=O)O)c1)[C@@H](C)O)C(=O)N1CCC[C@H]1C(N)=O ({X1-βAla}-TNLYM[Ala(3-Me-diazirin-3-yl)]PKWDIP-NH2)

>  <CLASS>
rule not met

$$$$
